target: Human P2Y12 receptor (Homo sapiens, UniProt Q9H244); construct: expressed in transfected cells; host or cells: HEK cells; test: Human P2Y12 receptor cell membrane binding assay with [3H] 2-Mes-ADP; details: 1 nM [3H] 2-Mes-ADP, membranes of HEK cells expressing P2Y12 receptor; read-out: Binding activity (IC50)
Sequence (Q9H244 whole entry): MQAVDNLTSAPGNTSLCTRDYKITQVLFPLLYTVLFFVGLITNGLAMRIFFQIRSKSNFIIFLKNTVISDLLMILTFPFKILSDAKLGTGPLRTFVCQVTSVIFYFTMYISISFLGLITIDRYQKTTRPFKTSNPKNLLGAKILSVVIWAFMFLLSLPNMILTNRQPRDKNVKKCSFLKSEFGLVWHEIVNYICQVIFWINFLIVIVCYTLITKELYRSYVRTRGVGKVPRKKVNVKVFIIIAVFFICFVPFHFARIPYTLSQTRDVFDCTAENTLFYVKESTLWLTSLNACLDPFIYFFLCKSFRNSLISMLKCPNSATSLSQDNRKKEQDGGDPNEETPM

| SMILES STRUCTURE | EXPERIMENTAL TARGET | IC50 / nM |
| --- | --- | --- |
| CCCc1nc2c(N3CCn4c(nnc4C(F)(F)F)C3)nc(N3CCNC(=O)C3)nc2s1 | Human P2Y12 receptor (Homo sapiens, UniProt Q9H244) | 72 |
| CCCc1cc2c(N3CCn4c(nnc4C(F)(F)F)C3)nc(Nc3nc(C(=O)O)cs3)nc2s1 | Human P2Y12 receptor (Homo sapiens, UniProt Q9H244) | 47 |
| CCCc1cc2c(N3CCn4c(nnc4C(F)(F)C(F)(F)F)C3)nc(N3CCNC(=O)C3)nc2s1 | Human P2Y12 receptor (Homo sapiens, UniProt Q9H244) | 128 |
| CCCc1cc2c(N3CCn4c(nnc4C(F)(F)F)C3)nc(COc3cccc(C(=O)O)c3)nc2s1 | Human P2Y12 receptor (Homo sapiens, UniProt Q9H244) | 160 |
| CCc1cc2c(N3CCn4c(nnc4C(F)(F)F)C3)nc(C(=O)NCCO)nc2s1 | Human P2Y12 receptor (Homo sapiens, UniProt Q9H244) | 1580 |
| CCCc1cc2c(N3CCn4c(nnc4C(F)(F)F)C3)nc(Oc3ccc(OCC(=O)OC)cc3)nc2s1 | Human P2Y12 receptor (Homo sapiens, UniProt Q9H244) | 650 |
| CCCc1cc2c(N3CCn4c(nnc4C(F)(F)F)C3)nc(-c3nnc(CC(=O)OCC)o3)nc2s1 | Human P2Y12 receptor (Homo sapiens, UniProt Q9H244) | 230 |
| CCCc1cc2c(N3CCn4c(nnc4C(F)(F)F)C3)nc(-c3nc(CC(=O)O)cs3)nc2s1 | Human P2Y12 receptor (Homo sapiens, UniProt Q9H244) | 14 |
| CCc1cc2c(N3CCn4c(nnc4C(F)(F)F)C3)nc(NCC(=O)O)nc2s1 | Human P2Y12 receptor (Homo sapiens, UniProt Q9H244) | 2170 |
| CCc1cc2c(N3CCn4c(nnc4C(F)(F)F)C3)nc(N(CCO)CCO)nc2s1 | Human P2Y12 receptor (Homo sapiens, UniProt Q9H244) | 835 |
